# STUDY_TARGET: T1, human CD38 extracellular domain (hCD38, recombinant, with AviTag) (human, UniProt P28907 43-300)
# T1 construct: also called recombinant CD38; huCD38
# PROTOCOL_DESCRIPTION: ELISA on human CD38 ECD, EC50 class
Quick list: EC50 per entry.

# BINDER, EC50
measured = [
    ("Anti-CD38 LC_G94A (antibody, V domains shown, Alanine variant of h18E4-19 with the parent VH; also called Anti-CD38low) VH: EVQLLESGGGLVQPGGSLRLSCAASGFSFNNYWIIWIRQAPGKGLEWVAAIYSPSGDIKYYADWAKGRFTVSKDNSKNTVYLQMNSLRAEDTAVYYCARELSGSSYEGYFESWGQGTLVTVSS VL: DIQLTQSPSTLSASVGDRVTITCRSSQSVYGHNWLAWYQQKPGKAPKLLMYRASNLASGVPSRFSGSGSGTEFTLTISSVQPDDFATYYCQGYYSAGSYAFGGGTKVEIK", "> 0.5 nM"),
    ("Anti-CD38 HC_S102A (antibody, V domains shown, Alanine variant of h18E4-19 with the parent VL) VH: EVQLLESGGGLVQPGGSLRLSCAASGFSFNNYWIIWIRQAPGKGLEWVAAIYSPSGDIKYYADWAKGRFTVSKDNSKNTVYLQMNSLRAEDTAVYYCARELSGSSYEGYFEAWGQGTLVTVSS VL: DIQLTQSPSTLSASVGDRVTITCRSSQSVYGHNWLAWYQQKPGKAPKLLMYRASNLASGVPSRFSGSGSGTEFTLTISSVQPDDFATYYCQGYYSGGSYAFGGGTKVEIK", "0.02 to 0.1 nM"),
    ("Anti-CD38 LC_S93A (antibody, V domains shown, Alanine variant of h18E4-19 with the parent VH) VH: EVQLLESGGGLVQPGGSLRLSCAASGFSFNNYWIIWIRQAPGKGLEWVAAIYSPSGDIKYYADWAKGRFTVSKDNSKNTVYLQMNSLRAEDTAVYYCARELSGSSYEGYFESWGQGTLVTVSS VL: DIQLTQSPSTLSASVGDRVTITCRSSQSVYGHNWLAWYQQKPGKAPKLLMYRASNLASGVPSRFSGSGSGTEFTLTISSVQPDDFATYYCQGYYAGGSYAFGGGTKVEIK", "0.1 to 0.5 nM"),
    ("Anti-CD38 HC_G98A (antibody, V domains shown, Alanine variant of h18E4-19 with the parent VL) VH: EVQLLESGGGLVQPGGSLRLSCAASGFSFNNYWIIWIRQAPGKGLEWVAAIYSPSGDIKYYADWAKGRFTVSKDNSKNTVYLQMNSLRAEDTAVYYCARELSASSYEGYFESWGQGTLVTVSS VL: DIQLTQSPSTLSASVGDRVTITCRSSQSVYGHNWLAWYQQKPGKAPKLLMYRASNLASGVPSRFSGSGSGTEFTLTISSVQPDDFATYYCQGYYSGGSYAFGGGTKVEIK", "0.02 to 0.1 nM"),
    ("Anti-CD38 HC_E101A (antibody, V domains shown, Alanine variant of h18E4-19 with the parent VL) VH: EVQLLESGGGLVQPGGSLRLSCAASGFSFNNYWIIWIRQAPGKGLEWVAAIYSPSGDIKYYADWAKGRFTVSKDNSKNTVYLQMNSLRAEDTAVYYCARELSGSSYEGYFASWGQGTLVTVSS VL: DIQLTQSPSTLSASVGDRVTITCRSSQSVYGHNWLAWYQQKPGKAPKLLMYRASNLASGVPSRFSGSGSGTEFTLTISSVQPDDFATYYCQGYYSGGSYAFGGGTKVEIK", "0.02 to 0.1 nM"),
    ("Anti-CD38 LC_Y91A (antibody, V domains shown, Alanine variant of h18E4-19 with the parent VH) VH: EVQLLESGGGLVQPGGSLRLSCAASGFSFNNYWIIWIRQAPGKGLEWVAAIYSPSGDIKYYADWAKGRFTVSKDNSKNTVYLQMNSLRAEDTAVYYCARELSGSSYEGYFESWGQGTLVTVSS VL: DIQLTQSPSTLSASVGDRVTITCRSSQSVYGHNWLAWYQQKPGKAPKLLMYRASNLASGVPSRFSGSGSGTEFTLTISSVQPDDFATYYCQGAYSGGSYAFGGGTKVEIK", "> 0.5 nM"),
]
